target: T1, human δ opioid receptor (human, UniProt P41143 1-372); experiment: radioligand competition vs [3H]DPDPE, membranes of hDOR cells
T1 construct: whole, on cells; Used as crude membrane preparations of the transfected cells; also called hDOR; DOR
T1 sequence (P41143 whole entry, stated change not applied): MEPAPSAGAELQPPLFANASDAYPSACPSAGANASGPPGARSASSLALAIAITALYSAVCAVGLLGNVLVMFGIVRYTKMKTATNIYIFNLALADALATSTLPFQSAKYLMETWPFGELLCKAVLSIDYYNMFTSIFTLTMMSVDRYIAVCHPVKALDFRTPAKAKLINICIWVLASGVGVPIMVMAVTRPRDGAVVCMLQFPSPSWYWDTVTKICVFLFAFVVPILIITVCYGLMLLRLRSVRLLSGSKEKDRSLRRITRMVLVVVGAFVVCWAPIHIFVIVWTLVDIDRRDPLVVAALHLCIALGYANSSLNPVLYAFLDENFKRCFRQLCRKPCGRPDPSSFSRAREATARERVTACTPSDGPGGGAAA
pKi: −log10 of the molar value. Bridge positions count the residues as written; N and C are the ends. Square brackets hold non-standard residues; d marks the D form. Ends that are not written are not given here. * marks the point of attachment. NHBn(CF3)2 = C-terminal amide NH-Bn(CF3)2, a benzyl group carrying two CF3; NMeBn(CF3)2 = C-terminal N-methyl bis(trifluoromethyl)benzyl amide; NH(3,5-(CF3)2-benzyl) = FC(F)(F)c1cc(CN*)cc(C(F)(F)F)c1; NMeBn(3,5-(CF3)2) = CN(Cc1cc(C(F)(F)F)cc(C(F)(F)F)c1)*; OBzl(3,5-(CF3)2) = FC(F)(F)c1cc(CO*)cc(C(F)(F)F)c1; Dmt = Cc1cc(O)cc(C)c1C[C@H](N)C(=O)O; NMe(benzyl) = CN(Cc1ccccc1)*; NHBn = c1ccc(CN*)cc1; OBn = c1ccc(CO*)cc1
Lab note: compare pKi against 9. Equal or greater, write 1.0. Smaller, write 0.0.

Y[dC]GFCPLW-{NH(3,5-(CF3)2-benzyl)} (disulfide 2-5, also called [D-Cys2, Cys5]) [Tyr[DCysGlyPheCys]ProLeuTrpNHBn(CF3)2 (TY039)]: 0.0
MPLW-{OBzl(3,5-(CF3)2)} [MetProLeuTrpOBn(CF3)2 (TY036)]: 0.0
Y[dA]GFMPLW-{NMe(benzyl)} [TyrDAlaGlyPheMetProLeuTrpNMeBn (TY026)]: 1.0
[Dmt][dA]GFMPLW-NHBn [DmtDAlaGlyPheMetProLeuTrpNHBn (TY034)]: 1.0
Y[dA]GFM[dP]LW-{OBzl(3,5-(CF3)2)} [TyrDAlaGlyPheMetDProLeuTrpOBn(CF3)2 (TY024)]: 0.0
Y[dA]GFGPLW-{OBzl(3,5-(CF3)2)} [TyrDAlaGlyPheGlyProLeuTrpOBn(CF3)2 (TY006)]: 0.0
Y[dA]GFLPLW-{OBzl(3,5-(CF3)2)} [TyrDAlaGlyPheLeuProLeuTrpOBn(CF3)2 (TY004)]: 0.0
Y[dA]GFMPLW-NHBn [TyrDAlaGlyPheMetProLeuTrpNHBn (TY025)]: 1.0
Y[dA]GFFPLW-OBn [TyrDAlaGlyPhePheProLeuTrpOBn (TY014)]: 0.0
Y[dA]GFFPLW-{NHBn(CF3)2} [TyrDAlaGlyPhePheProLeuTrpNHBn(CF3)2 (TY015)]: 0.0
YAGFXPLW (Dmt at 1; D-Ala at 2; Nle at 5 (X); C-terminal NH-Bn-3-(CF3) amide) [DmtDAlaGlyPheNleProLeuTrpNHBn-3-(CF3) (TY053)]: 0.0
YAGFXPLW (not fully specified; Dmt at 1; D-Ala at 2; Nle at 5 (X); C-terminal NH-Bn-2,4-(OMe)2 amide) [DmtDAlaGlyPheNleProLeuTrpNHBn-2,4-(OMe)2 (TY054)]: 1.0
[Dmt][dA]GFMPLW-{OBzl(3,5-(CF3)2)} [DmtDAlaGlyPheMetProLeuTrpOBn(CF3)2 (TY033)]: 1.0
Y[dA]GFSPLW-{NH(3,5-(CF3)2-benzyl)} (not fully specified (residue 5); printed as TyrDAlaGlyPheSer(OGlu)ProLeuTrpNHBn(CF3)2) [TyrDAlaGlyPheSer(OGlu)ProLeuTrpNHBn(CF3)2 (TY042)]: 0.0
[Dmt][dA]GFMPLW-{NH(3,5-(CF3)2-benzyl)} [DmtDAlaGlyPheMetProLeuTrpNHBn(CF3)2 (TY032)]: 1.0
Y[dA]GFFPLW-{OBzl(3,5-(CF3)2)} [TyrDAlaGlyPhePheProLeuTrpOBn(CF3)2 (TY003)]: 0.0
Y[dA]GF[dF]PLW-{OBzl(3,5-(CF3)2)} [TyrDAlaGlyPheDPheProLeuTrpOBn(CF3)2 (TY007)]: 0.0
YAGFXPLW (Dmt at 1; D-Ala at 2; Nle at 5 (X); C-terminal NMe-3,5-Bn(CF3)2 amide) [DmtDAlaGlyPheNleProLeuTrpNMeBn(CF3)2 (TY052)]: 1.0
Y[dA]GFFPLW-{NMeBn(3,5-(CF3)2)} [TyrDAlaGlyPhePheProLeuTrpNMeBn(CF3)2 (TY017)]: 0.0
Y[dA]GFMPLW-{NMeBn(CF3)2} [TyrDAlaGlyPheMetProLeuTrpNMeBn(CF3)2 (TY028)]: 0.0
Y[dC]GFMPLW-{OBzl(3,5-(CF3)2)} [TyrDCysGlyPheMetProLeuTrpOBn(CF3)2 (TY031)]: 0.0
YAGFMPLW (D-Ala at 2; Met(O) (oxidized methionine) at 5; C-terminal O-3,5-Bn(CF3)2 ester) [TyrDAlaGlyPheMet(O)ProLeuTrpOBn(CF3)2 (TY023)]: 0.0
Y[dA]GFMPLW-{OBzl(3,5-(CF3)2)} [TyrDAlaGlyPheMetProLeuTrpOBn(CF3)2 (TY005)]: 0.0

The origin of these recorded values is patent US8026218.
